Origin of the recorded values: PubChem BioAssay (NCI)

System: OVCAR-5 ovarian
Protocol notes: NCI-60 one-dose screen, 48 h (100 = growth as untreated, 0 = no growth, -100 = all killed)
Condition label: 10 µM unless noted
This is part of a sample that, as a whole, favours compounds with a hit. Of some 83,000 tested, about 20% had one in any assay. The source made the active and inactive calls. The calls were made as follows: active = growth percent below 10; inactive = the rest.
# growth annotations

| Compound | growth |
| --- | --- |
| Cc1cc(-c2nc3cc(F)ccc3[se]2)cc(F)c1N | 51.2% (inactive) |
| COC[C@@H]1C[C@@]2(C)[C@@H](CC[C@@H]3[C@@H]2CC[C@@]2(C)[C@H]3CC[C@]2(C)O)CC1=O | 97.9% (inactive) |
| Nc1c(F)cc(-c2nc3cc(F)ccc3[se]2)cc1Br | 8.24% (active) |
| CC[C@@H]1[C@@H](C)O[C@@](O)([C@@H](C)[C@H](O)[C@H](C)[C@H]2OC(=O)/C=C/C=C/[C@H](C)[C@@H]([C@@H](C)[C@@H](O)[C@H](C)[C@@]3(O)C[C@@H](O[C@H]4C[C@@H](O)[C@H](O)C(C)O4)[C@H](CC)[C@@H](C)O3)OC(=O)/C=C/C=C/[C@@H]2C)C[C@H]1O[C@@H]1C[C@@H](O)[C@H](O)C(C)O1 (stereo partly specified) | -88.7% (active) |
| CC1=C(CNO)C2=C(C)C3(CC3)[C@@](C)(O)C(=O)C2=C1 | 1.01% (active) |
| CCCCCCCCCCCCCCCCCC1OC[C@H](COC(=O)O[C@@H](C(=O)O[C@H]2C[C@@]3(O)[C@@H](OC(=O)c4ccccc4)[C@@H]4[C@]5(OC(C)=O)CO[C@@H]5C[C@H](O)[C@@]4(C)C(=O)[C@H](OC(C)=O)C(=C2C)C3(C)C)[C@@H](NC(=O)c2ccccc2)c2ccccc2)O1 (stereo partly specified) | 41.5% (inactive) |

* * *

Tested on: CCRF-CEM leukemia
Protocol notes: NCI-60 one-dose screen, 48 h
Condition label: 10 µM unless noted
Protocol: Growth inhibition of the CCRF-CEM human tumor cell line is measured as a screen for anti-cancer activity. Cells are grown in 96 well plates and exposed to the test compound for 48 hours. Compounds are tested at a single concentration, which is 10^-5 M for most compounds. The reported endpoint is percent growth (GI% or GIPRCNT), where numbers from 0 - 100% represent growth inhibition, and numbers from -100% - 0 represent cell death. For example, a value of 40 represents 60% growth inhibition. […]
The panel holds about 83,000 compounds, 20% with a hit somewhere; the sample as a whole holds those more often. The source made the active and inactive calls. The calls were made as follows: active = growth percent below 10; inactive = the rest.
Possible outcomes: class 1 = active, class 0 = inactive

| Compound | Group label |
| --- | --- |
| Nc1ccc(OCCNS(=O)(=O)c2cccc(S(=O)(=O)F)c2)c(Cl)c1 | class 0 |
| COc1ccc(C(=O)c2sc3nc4c(cc3c2N)N2CCC4CC2)cc1OC | class 0 |
| CCCCCSC1C2C(=O)C(Br)=CC13CCNc1c(O)c4c5c(c13)=[N+]2CCC=5C=N4 (stereo not drawn) | class 1 |
| Cc1c(NS(=O)(=O)c2ccccc2)ccc([N+](=O)[O-])c1Cl | class 0 |
| CC[S][Hg][Cl] | class 0 |
| CCOc1ccc(/C=C/[N+](=O)[O-])cc1 | class 0 |
| CCCCCCCCCCCCCCCCCC1OC[C@@H](COC(=O)O[C@@H](C(=O)O[C@H]2C[C@@]3(O)[C@@H](OC(=O)c4ccccc4)[C@@H]4[C@]5(OC(C)=O)CO[C@@H]5C[C@H](O)[C@@]4(C)C(=O)[C@H](OC(C)=O)C(=C2C)C3(C)C)[C@@H](NC(=O)c2ccccc2)c2ccccc2)O1 (stereo partly drawn) | class 0 |
| CC[C@H](C)[C@H](NC(=O)c1ccccn1)C(=O)N(C)[C@H](C[C@@H](OC(C)=O)c1nc(C(=O)N[C@@H](Cc2ccccc2)C[C@H](C)C(=O)OC)cs1)C(C)C | class 1 |
